assay: yeast display, Sf9 membrane polyspecificity reagent, FACS + sequencing; frameworks hold sequencing errors
measurement-label: polyreactivity (PSR sort gate)

Query: Reported polyreactivity (PSR sort gate), sequence QVQLVESGGGLVQAGGRLRLSCAASGRTCGYYTMGWYRQAPGKERELVATIRWSGGSTYADSVKGRFTISRDNAKNTVYLQMNSLKPEDTAVYYCAARNRIKWGQGTQVTVSS : ____
Response: high polyreactivity

Query: Entry QVQLVESGGGLVQAGGSLRLSCAASGRIGYYAMGWYRQAPGKERELVATISRGGSTKYADSVKGRFTISRDNAKNTVYLQMNSLKPEDTAVYYCAAARAPRYDYWGQGTQVTVSS : reported polyreactivity (PSR sort gate) = ?
Response: high polyreactivity

Query: Value lookup for polyreactivity (PSR sort gate); key = QVQLVESGGGLVQAGGSLRLSCAASGSIFGAYAMGWYRQAPGKERELVAAISGSGTSTYYADSVKGRFTISRDNAKNTVYLQMYSLKPEDTAVYYCAADGTYFYIYLGDRFDYWGQGTQVTVSS
Response: low polyreactivity

Query: Quick one: polyreactivity (PSR sort gate) of KVQLVESGGGLVQAGGSLRLSCAASGSIFDLYTMGWYRQAPGKERELVATISSGGSTNYADSVKGRFTISRDNAKNTVNLQMNSLKPEDTAVYYCAAGSTHYDIHFDYWGQGTQVTVSS ?
Response: low polyreactivity

---
Query: Dear colleague, I am looking for the recorded polyreactivity (PSR sort gate) of the following sequence: HVQLVESGGGLVQAGGSLRLSCAASGSTLYSYAMGWYRQAPGKARELVAAISIGDSTNYADSVKGRFTISRDNAKNTVYLQMNSLKPEDTAVYYCNADRALGYYVVVFIFEYWGQGTQVTVSS
Response: low polyreactivity

---

test: yeast display, Sf9 membrane polyspecificity reagent, FACS + sequencing; frameworks hold sequencing errors
measurement-label: polyreactivity (PSR sort gate)

Query: Give the measured polyreactivity (PSR sort gate) of QVQLVESGGGLVQAGGRLRLTCAASGSIFPTYDLGWYRQAPGKERELVAAIRGDGSTNYADSVKGRFTISRDNAKNTVYVQMNSLKPEDTAVSYCAAVSSEYVFRYGGYWGQGTQVTVSS .
Response: low polyreactivity

Query: I am curious: what polyreactivity (PSR sort gate) value has been reported for QDQLVESGRGLVQAGGSLRLSCAASGFIFYQNAMGWYRQAPGKERELVAAISWRSGRTYYADSVKGRFTISRDNAKNTVYLQMNSLKPEDTAVYYCNAVRYPSYSPEYGSWGQGTEVTVSS ?
Response: high polyreactivity

Query: # get_value(readout='polyreactivity (PSR sort gate)', item= QVQLGESVGGLVQAGGSLRLSCAASGSILFPYPMGWYRQAPGKERELVAAISWSGDSTRYADSVKGRFTISRDNAKNTVYLQMNSLKPEVTAVYYCATSSDATGTFAPMDSWGQGTQVTVSS )
Response: low polyreactivity

Query: Which polyreactivity (PSR sort gate) value is on record for QVQLVESGGGLVQAGGSLRLSCAASGSTFGRYAMGWYRQAPGKERELVAAISRGTTTNYADSVKGRFTISRDNAKNTVYLQMNILKPEDTAVYYCAAQTDSVESDYWGQGTQVTVSS ?
Response: low polyreactivity

Query: Dear colleague, I am looking for the recorded polyreactivity (PSR sort gate) of the following sequence: QGQLVESGGGFVQAGGSLRLSCDASGNIFSANAMGWYRQAPWKEREFVAAISSTGGSTYYADSVKGRFTISRDNEMNTLYLQMNCLKPEDTAVYYCAAYIRRYFHYDYWRQGTQVTVSS
Response: high polyreactivity

***
Query: GET /values?readout=polyreactivity (PSR sort gate)&item= QVQLVESGGGLVQAGGSLRLSCAASGSTFDTYAMGWYRQAPGKEREFVATITGSGGSTYYADSVKVRFTITRDNAKNTVYLQMNSLKPEDTAVYYCNAETYIDLRGKFPVEYDYWGQGTQVTVSS
Response: low polyreactivity

---

assay: yeast display, Sf9 membrane polyspecificity reagent, FACS + sequencing; frameworks hold sequencing errors
measurement-label: polyreactivity (PSR sort gate)

Below: 4 sequences and their reported polyreactivity (PSR sort gate).
Query: Please report the recorded polyreactivity (PSR sort gate) for QVQLVESGGGLVQAGGSLRLSCAASGSTFQGYDMGWYRQAPGKERELVAAINYSGGSTYYADSVKGRFTISRDNAKNTVYLQLNSLKPEDTAVFYCNADGYSQFWYEYYYCGQGTQVTVSS .
Response: high polyreactivity

Query: Which polyreactivity (PSR sort gate) is reported for this sequence? QVQLVESGGGLVQAGGSLRLSSAASGFTFRRYAMGWYRQAPGKERELVAAISTSGGNTYYADSVKGRFTISRDNAKNTVYLQMNSLKPEDTAVYYCYARRKDNGHGTPFDDYWGQGTQVTVSS
Response: high polyreactivity

Query: Item QVQLVESGGGLVQAGGSLRLSCAASGLTFNSYDMGWYRQAPGKERELVAAISSGGVLPNYADSVKGRFTISRDNAKNTVYLQMNSLNPEDTAVYYCNVYSWPYDYWGQGTQVTVSS has what recorded polyreactivity (PSR sort gate)?
Response: low polyreactivity

Query: GET /values?readout=polyreactivity (PSR sort gate)&item= QVQLVESGGGLVQAGGSLRLSCAASGSIFHDNAMGWYRQAPGKERELVAAITTSGGNTYYADSVKGRFTISRDNAKNTVYLQMNSLKPEDTAVYYCAADTLGKYDYWGQGTQVTVSS
Response: low polyreactivity

---
Query: Value lookup for polyreactivity (PSR sort gate); key = QVQLVESGGGLVQAGGSLRLSCAASGYIFGWNAMGWYRQAPGKERELVASIRWGGGSTYYADSVKGRFTISRDNAKNTVYLQMNSLKPEDTAVYYCAAKRRYYGPWSRIGYDYWGQGTQVTVSS
Response: low polyreactivity

---

assay: yeast display, Sf9 membrane polyspecificity reagent, FACS + sequencing; frameworks hold sequencing errors
measurement-label: polyreactivity (PSR sort gate)

Query: Bench note: what polyreactivity (PSR sort gate) did QVQLVESGGGLVQAGGSLRLSCAASGSTFPYNVMGWYRPAPGKERELVAAISYSGGNTYYADSVKGRFTISRDNAKNTVYLQMNSLKPEDTAVYYCAKARRGGRGSIKYDYWGQGTQVTVSS show?
Response: high polyreactivity

Query: Would you mind telling me what polyreactivity (PSR sort gate) value was observed for QVQLVESGGGLVQAGGSLRVSCAASGSTLVFNAMGWYRQAPGKEREIVAAISKSGGSRYYADSVKGRFTISRDNAKNTVYLQMNSLKPEDTAVYYCAPDSGGPGYAMDYWGQGTQVTVSS ?
Response: high polyreactivity

Query: State the recorded polyreactivity (PSR sort gate) for this entry: QVQLVESVGGLVQAGGSLRLSCAASGFIFNWYAMGWYRQAPGKERELVAAITSGGSTNYADSVKGRFTISRDNAKNTVYLQMNSLKPEDTAVYYCAARDWRRYGYWGQGTQVTVSS
Response: high polyreactivity

---

assay: yeast display, Sf9 membrane polyspecificity reagent, FACS + sequencing; frameworks hold sequencing errors
measurement-label: polyreactivity (PSR sort gate)

Query: Can you share its polyreactivity (PSR sort gate)? I mean this sequence: QVQLVESGGGLVQAGGSLRLSCAASGRTFYTYAMGWNRQAPGKEREFVAAITGSGGSTYYADSVKWRFTISRDNAKNTVYLQMTSLKPDDRAVYYCNAGSPGDVWYYYWGQGTQVTVSS
Response: low polyreactivity

Query: Given the entry QVQLLESGGGLVQAGGSLRLSSAASGSILDHYAMGWYRQAPGNEREFVAAISIRGGSTYYADSVKGRFTISRDNAKNTVFLQMNSLKPEDNAVYYCAATAQYGRDSWSSYRMFPPYDYWGQGTEVTVSS , report its measured polyreactivity (PSR sort gate).
Response: low polyreactivity

Query: Consider the sequence shown here: QVQLVESGGGLVQAGGSLRLSCAASGNTFCQYAMGWYRQAPGKERELVAAITRSTGSTYYADSVNGRFTISRDNAKNTVYLQMISLKPEDTAVYYCAADFYRHYFRVDSWGQGTQVTVSS What is its recorded polyreactivity (PSR sort gate)?
Response: low polyreactivity

---

experiment: yeast display, Sf9 membrane polyspecificity reagent, FACS + sequencing; frameworks hold sequencing errors
measurement-label: polyreactivity (PSR sort gate)

Example entries and their recorded answers appear below.
Query: # get_value(readout='polyreactivity (PSR sort gate)', item= QVQLVESGGGLVQAGGSLRLSCAASGRIFRDNAMGWYRQAPGKERELVAAISRRGGSTYYADSVKGRFTISRDNAKNTVYLQMNSLKPEDTAVYYCNKTTQSRTFRYDYWGQGTQVTVSS )
Response: low polyreactivity

Query: Please look up its polyreactivity (PSR sort gate): QVQLVESGGGLVQAGGSLRLSCAASGITFWGYVMGWYRQAPGKERELVAAISSSGGRTYYADSVKGRFTISRDNAKNTVYLQMNSLKPEDTAVYYCAAVAWQGTVQFGYWGQGTQVTVSS
Response: high polyreactivity

Query: Look at this sequence and give its reported polyreactivity (PSR sort gate). QVQLVESAGGLVQAGGSLRLSCAASGFTFRSNAIGWYRQAPGKQRELVAAITSRGGSTYYADSVKGRFTISRDNAKNTVYLQMNSLKPVDTAVYYCAAEGRSRKFDYWGQGTQVTVSS
Response: high polyreactivity

Query: Can you look up the measured polyreactivity (PSR sort gate) of QVQIVESGGGLVQAGGSLRLSCAASGGIFEINVLGWYRQAPGKERELVAAISSRGGSTYYADSVKGRFTISRDNAKNTVYLQMNSLKPEDTAVYYCARRYRPKYGYWGQGTQVTVSS for me?
Response: high polyreactivity

Next up:
Query: Look at this sequence and give its reported polyreactivity (PSR sort gate). QVQLVESGGGLVQAGGSLRLSCAASGRTFVGYAMGWYRQAPGKERELVAAITSGGSTYYADSVKGRFTISRDNAKNTVYLQMNSLKPEDTAVYYCATALYDWYSLEFDYWGQGTQVTVSS
Response: low polyreactivity
